Reference for the values: patent US20050101595A1

System: HCT-116 cell line
Experiment Notes: Inhibition of cell growth, tetrazolium salt (MTT) assay
Type: cell-based
Experimental Setup: 0.25 μM compound; HCT-116; Table 2
Procedure: Inhibition of Cell Growth: Assessment of Cytotoxicity: Inhibition of cell growth was measured using the tetrazolium salt assay, which is based on the ability of viable cells to reduce 3-(4,5-dimethylthiazol-2-yl)-2,5-[2H]-diphenyltetrazolium bromide (MTT) to formazan (Mossman, Journal of Immunological Methods, vol. 65 (1983), pp. 55-58). The water-insoluble purple formazan product was then detected spectrophotometrically. […]
Returns criterion met if the recorded HCT-116 % Inhibition at 0.25 μM is greater than or equal to 40%, and criterion not met otherwise.

CCOC(=O)CCNC(=O)N1CCC(Nc2nc(N)c(C(=O)c3c(F)cccc3F)s2)CC1 [Example O73]    criterion met
COC(=O)NC(=O)N1CCC(Nc2nc(N)c(C(=O)c3c(F)cccc3F)s2)CC1 [Example O61]    criterion not met
CC(C)NC(=O)N1CCC(Nc2nc(N)c(C(=O)c3c(F)cccc3F)s2)CC1 [Example O29]    criterion not met

Item COc1cc(NC(=O)N2CCC(Nc3nc(N)c(C(=O)c4c(F)cccc4F)s3)CC2)cc(OC)c1OC [Example O44] with HCT-116 % Inhibition at 0.25 μM of 40% or above? criterion not met

Item Nc1nc(NC2CCN(C(=O)Nc3cccc(F)c3)CC2)sc1C(=O)c1c(F)cccc1F [Example O13] with HCT-116 % Inhibition at 0.25 μM of 40% or above? criterion not met

Item CCOC(=O)CC[C@H](NC(=O)N1CCC(Nc2nc(N)c(C(=O)c3c(F)cccc3F)s2)CC1)C(=O)OCC [Example O80] with HCT-116 % Inhibition at 0.25 μM of 40% or above? criterion met
